Experiment: Half life in rat liver microsomes
Assay type: ADME, Microsome
observable: half-life

Enquiry: Answer with the recorded half-life for the molecule listed here: `C[C@@H]1OCC2(CCN(c3nc4[nH]nc(-c5ccnc(NC6CC6)c5Cl)c4c(=O)n3C)CC2)[C@@H]1N`
Return: 53.2 min

###

Biological target: Voltage-gated inwardly rectifying potassium channel KCNH2 (Homo sapiens, UniProt Q12809)
Sequence (Q12809 whole entry): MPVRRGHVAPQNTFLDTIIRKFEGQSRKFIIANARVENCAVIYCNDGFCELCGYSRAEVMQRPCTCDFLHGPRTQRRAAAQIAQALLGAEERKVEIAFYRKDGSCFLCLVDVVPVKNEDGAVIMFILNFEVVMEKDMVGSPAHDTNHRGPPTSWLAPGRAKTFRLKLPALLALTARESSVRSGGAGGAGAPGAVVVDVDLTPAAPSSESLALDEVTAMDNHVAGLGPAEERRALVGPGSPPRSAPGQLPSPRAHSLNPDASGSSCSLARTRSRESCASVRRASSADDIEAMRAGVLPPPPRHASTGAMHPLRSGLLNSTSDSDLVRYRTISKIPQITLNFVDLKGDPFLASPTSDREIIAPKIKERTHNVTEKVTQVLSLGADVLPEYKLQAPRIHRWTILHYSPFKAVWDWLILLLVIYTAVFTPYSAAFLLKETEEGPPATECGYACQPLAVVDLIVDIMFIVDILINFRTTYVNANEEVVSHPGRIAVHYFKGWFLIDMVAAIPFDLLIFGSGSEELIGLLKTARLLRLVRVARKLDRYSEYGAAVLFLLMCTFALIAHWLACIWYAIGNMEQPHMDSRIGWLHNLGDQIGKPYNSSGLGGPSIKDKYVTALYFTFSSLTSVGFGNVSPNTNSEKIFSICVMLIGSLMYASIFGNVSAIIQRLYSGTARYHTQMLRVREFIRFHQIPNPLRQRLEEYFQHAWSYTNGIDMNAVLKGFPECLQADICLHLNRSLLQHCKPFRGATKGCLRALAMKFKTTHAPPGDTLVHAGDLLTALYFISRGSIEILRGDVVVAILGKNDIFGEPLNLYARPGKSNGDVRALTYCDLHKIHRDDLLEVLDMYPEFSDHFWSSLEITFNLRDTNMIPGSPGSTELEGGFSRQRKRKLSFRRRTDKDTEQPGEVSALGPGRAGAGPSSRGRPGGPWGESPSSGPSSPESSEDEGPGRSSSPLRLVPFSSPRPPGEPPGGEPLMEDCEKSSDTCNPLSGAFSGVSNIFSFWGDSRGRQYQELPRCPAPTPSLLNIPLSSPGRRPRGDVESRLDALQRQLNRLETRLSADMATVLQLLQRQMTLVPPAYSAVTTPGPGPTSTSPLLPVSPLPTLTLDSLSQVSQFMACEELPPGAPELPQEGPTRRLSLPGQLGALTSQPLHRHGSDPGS
pIC50 overview
API: returns pIC50 as number; meaning -log10 of concentration in mol/L.

Here are 3 molecules together with their reported answers.
[[record]]
compound_string = "C[C@@H]1OCC2(CCN(c3nc4[nH]nc(-c5ccnc(NC6CCC6)c5Cl)c4c(=O)n3C)CC2)[C@@H]1N"
measurement_target = "Voltage-gated inwardly rectifying potassium channel KCNH2 (Homo sapiens, UniProt Q12809)"
observable = "pIC50"
value_measured = 5.72

[[record]]
compound_string = "Cn1c(N2CCC3(CCC[C@H]3N)CC2)nc2n[nH]c(-c3cccc(Cl)c3Cl)c2c1=O"
measurement_target = "Voltage-gated inwardly rectifying potassium channel KCNH2 (Homo sapiens, UniProt Q12809)"
observable = "pIC50"
value_measured = 6.60

[[record]]
compound_string = "Cc1nc(N)ccc1-c1n[nH]c2nc(N3CCC4(CC3)CO[C@@H](C)[C@H]4N)n(C)c(=O)c12"
measurement_target = "Voltage-gated inwardly rectifying potassium channel KCNH2 (Homo sapiens, UniProt Q12809)"
observable = "pIC50"
value_measured = 5.18


From here, focus on the item given below.
Enquiry: Give pIC50 only, for `C[C@@H]1OCC2(CCN(c3cnc4c(-c5cccc(Cl)c5Cl)c[nH]c4n3)CC2)[C@@H]1N` , using Voltage-gated inwardly rectifying potassium channel KCNH2 (Homo sapiens, UniProt Q12809) data.
Return: 8.15

###

Molecular target: Tyrosine-protein phosphatase non-receptor type 11 (Homo sapiens, UniProt Q06124)
Sequence (Q06124 whole entry, the tested form may be a part): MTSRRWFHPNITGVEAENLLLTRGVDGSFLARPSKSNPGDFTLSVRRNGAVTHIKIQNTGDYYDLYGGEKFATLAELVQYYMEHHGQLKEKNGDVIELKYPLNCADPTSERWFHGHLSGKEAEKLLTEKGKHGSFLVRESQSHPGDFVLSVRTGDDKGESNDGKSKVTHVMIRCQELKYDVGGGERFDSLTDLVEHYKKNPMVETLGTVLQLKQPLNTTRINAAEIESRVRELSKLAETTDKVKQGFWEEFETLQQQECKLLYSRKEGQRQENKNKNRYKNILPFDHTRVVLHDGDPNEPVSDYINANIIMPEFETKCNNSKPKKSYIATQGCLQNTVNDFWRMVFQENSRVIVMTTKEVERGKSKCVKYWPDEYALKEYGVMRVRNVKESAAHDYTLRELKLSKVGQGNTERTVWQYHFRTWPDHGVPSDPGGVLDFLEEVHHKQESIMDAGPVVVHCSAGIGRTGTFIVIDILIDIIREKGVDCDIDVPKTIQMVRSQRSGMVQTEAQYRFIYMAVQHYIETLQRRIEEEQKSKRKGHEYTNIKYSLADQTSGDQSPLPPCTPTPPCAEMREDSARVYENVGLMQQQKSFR
Assay: Inhibition of human 6His-tagged SHP2 (2 to 593 residues) expressed in Escherichia coli BL21 Star (DE3) using DiFMUP as substrate preincubated for 30 mins followed by substrate addition by fluorescence assay
pIC50 overview
API: returns pIC50 as number; meaning -log10 of concentration in mol/L.

Here are 3 compounds together with their reported answers.
[[record]]
compound_string = "C[C@@H]1OCC2(CCN(c3nc4[nH]nc(-c5ccnc(N)c5Cl)c4c(=O)n3C)CC2)[C@@H]1N"
observable = "pIC50"
value_measured = 7.49

[[record]]
compound_string = "Cn1c(N2CCC3(CCC[C@H]3N)CC2)nc2n[nH]c(-c3cccc(Cl)c3Cl)c2c1=O"
observable = "pIC50"
value_measured = 7.51

[[record]]
compound_string = "C[C@@H]1OCC2(CCN(c3nc4[nH]nc(-c5ccnc(NC6CCC6)c5Cl)c4c(=O)n3C)CC2)[C@@H]1N"
observable = "pIC50"
value_measured = 6.46


Enquiry: Answer with the recorded pIC50 for the compound listed here: `CNc1nccc(-c2n[nH]c3nc(N4CCC5(CC4)CO[C@@H](C)[C@H]5N)n(C)c(=O)c23)c1Cl`
Return: 7.26

###

Molecular target: Tyrosine-protein phosphatase non-receptor type 11 (Homo sapiens, UniProt Q06124)
Experiment: Inhibition of SHP2 in human KYSE520 cells assessed as suppression of ERK phosphorylation after 2 hrs by AlphaScreen SureFire Phospho-ERK1/2 assay
Assay type: cell-based
IC50 overview
Write the answer as a number in nM, unit excluded.

[[record]]
compound_string = "Cn1c(N2CCC3(CCC[C@H]3N)CC2)nc2n[nH]c(-c3cccc(Cl)c3Cl)c2c1=O"
measurement_target = "Tyrosine-protein phosphatase non-receptor type 11 (Homo sapiens, UniProt Q06124)"
observable = "IC50"
value_measured = 30

[[record]]
compound_string = "CNc1nccc(-c2n[nH]c3nc(N4CCC5(CC4)CO[C@@H](C)[C@H]5N)n(C)c(=O)c23)c1Cl"
measurement_target = "Tyrosine-protein phosphatase non-receptor type 11 (Homo sapiens, UniProt Q06124)"
observable = "IC50"
value_measured = 22

[[record]]
compound_string = "C[C@@H]1OCC2(CCN(c3nc4[nH]nc(-c5ccnc(NC6CCC6)c5Cl)c4c(=O)n3C)CC2)[C@@H]1N"
measurement_target = "Tyrosine-protein phosphatase non-receptor type 11 (Homo sapiens, UniProt Q06124)"
observable = "IC50"
value_measured = 260

[[record]]
compound_string = "C[C@@H]1OCC2(CCN(c3nc4[nH]nc(-c5ccncc5)c4c(=O)n3C)CC2)[C@@H]1N"
measurement_target = "Tyrosine-protein phosphatase non-receptor type 11 (Homo sapiens, UniProt Q06124)"
observable = "IC50"
value_measured = 129


Enquiry: Answer with the recorded IC50 for the compound listed here: `C[C@@H]1OCC2(CCN(c3nc4[nH]nc(Sc5ccnc(N)c5Cl)c4c(=O)n3C)CC2)[C@@H]1N`
Return: 96

Enquiry: Answer with the recorded IC50 for the compound listed here: `C[C@@H]1OCC2(CCN(c3nc4[nH]nc(-c5ccnc(N)c5Cl)c4c(=O)n3C)CC2)[C@@H]1N`
Return: 103

Enquiry: Answer with the recorded IC50 for the compound listed here: `Cn1c(N2CCC3(CC2)COC[C@H]3N)nc2[nH]nc(-c3cccc(Cl)c3Cl)c2c1=O`
Return: 123

Enquiry: Answer with the recorded IC50 for the compound listed here: `C[C@@H]1OCC2(CCN(c3cnc4c(-c5cccc(Cl)c5Cl)c[nH]c4n3)CC2)[C@@H]1N`
Return: 484

Enquiry: Answer with the recorded IC50 for the compound listed here: `Cc1nc(N)ccc1-c1n[nH]c2nc(N3CCC4(CC3)CO[C@@H](C)[C@H]4N)n(C)c(=O)c12`
Return: 38
